Taken from ChEMBL document CHEMBL1154067.

# method-description: Cytotoxicity against MDBK cells after 48 to 96 hrs by MTT assay
# Format: cell-based, Bos taurus
# test-settings: cattle, mdbk
readout-label: CC50 (µM)
Provide only the numeric value, understood in µM.

CN(C)CCCNc1ccc(/N=N/c2ccccc2)cc1 = 58

Next up:
Which CC50 value belongs to CN(C)CCCNc1ccc(/N=N/c2cccc([N+](=O)[O-])c2)cc1 ?
33

====

# method-description: Cytotoxicity against hamster BHK21 cells assessed as reduction in cell viability after 48 to 96 hrs by MTT assay
# Type: cell-based, Mesocricetus auratus, BHK-21
# test-settings: bhk-21
readout-label: CC50 (µM)
Give a bare numeral; the unit µM is implied.

Recorded results for 2 compounds are shown here.
CN(C)CCCNc1ccc(/N=N/c2cc(F)ccc2F)cc1 = 33
Cc1c(/N=N/c2ccccc2)ccc(NC[C@@H]2CCCN3CCCC[C@H]23)c1C = 47

--- query ---
I have this compound here, CN(C)CCCNc1ccc(/N=N/c2cccc([N+](=O)[O-])c2)cc1 , and I need its recorded CC50.
20

====

# System: Vero
# method-description: Cytotoxicity against african green monkey Vero 76 cells by crystal violet staining
# Format: cell-based
# test-settings: chlorocebus sabaeus, vero
Some compounds, each annotated with its measured CC50.
Kindly answer with a numeric value in µM, unit omitted.

FC(F)(F)c1cccc(/N=N/c2ccc(NC[C@@H]3CCCN4CCCC[C@H]34)c3c2CCCC3)c1 = 50
Fc1ccc(F)c(/N=N/c2ccc(NC[C@@H]3CCCN4CCCC[C@H]34)c3c2CCCC3)c1 = 80
FC(F)(F)c1cccc(N/N=N/c2ccccc2)c1 = 15
Cc1ccc(/N=N/N(C)c2ccccc2)cc1 = 58
Cc1c(/N=N/c2ccccc2)ccc(NC[C@@H]2CCCN3CCCC[C@H]23)c1C = 60

// moving on: another record for CC50
Please look up its CC50: Cc1c(/N=N/c2cccc(C(F)(F)F)c2)ccc(NC[C@@H]2CCCN3CCCC[C@H]23)c1C
80

====

# Test system: Vero
# method-description: Cytotoxicity against african green monkey Vero 76 cells by crystal violet staining
# Type: cell-based
# test-settings: chlorocebus sabaeus, vero
Mark T for CC50 under 60 µM, F if at or over.

Fc1ccc(F)c(/N=N/Nc2ccccc2)c1 = F
c1ccc(/N=N/c2ccc(NC[C@@H]3CCCN4CCCC[C@H]34)c3c2CCCC3)cc1 = F
c1ccc(/N=N/N2CCN(c3ncccn3)CC2)cc1 = F
O=c1cccc2n1CC1CC2CN(/N=N/c2ccc(Cl)cc2)C1 (configuration not stated) = T
Cc1ccc(/N=N/c2ccc(NCCCN(C)C)cc2)cc1 = T

CC50 strictly < 60 µM for this molecule? CN(C)CCCNc1ccc(/N=N/c2c(F)cccc2F)cc1
F

Does this molecule meet the criterion CC50 < 60 µM? CCOC(=O)N1CCN(/N=N/c2ccccc2)CC1
F

Is the reported CC50 for CN1CCN(/N=N/c2ccccc2)CC1 strictly below 60 µM?
T

Please state whether CC50 is below 60 µM for CN(/N=N/c1cccc([N+](=O)[O-])c1)c1ccccc1
F

====

# Tested on: MT4
# method-description: Cytotoxicity against human MT4 cells after 96 hrs by MTT assay
# Format: cell-based
# test-settings: mt4, 96 h
readout-label: CC50 (µM)
Field format: number, assumed µM, no unit text.

c1ccc(N=NNc2ccccc2)cc1 = 47
CCOC(=O)N1CCN(/N=N/c2ccccc2)CC1 = 100
c1ccc(/N=N/c2ccc(NC[C@@H]3CCCN4CCCC[C@H]34)c3c2CCCC3)cc1 = 100
Fc1ccc(F)c(/N=N/c2ccc(NC[C@@H]3CCCN4CCCC[C@H]34)c3c2CCCC3)c1 = 40
CN(C)CCCN(/N=N/c1ccc([N+](=O)[O-])cc1)c1ccccc1 = 20
CN(/N=N/c1ccccc1)c1ccccc1 = 55
Cc1ccc(/N=N/N(C)c2ccccc2)cc1 = 45

Then this molecule:
Fill in the recorded CC50 for this molecule, with MT4 as test system: CN(C)CCCN(/N=N/c1c(F)cccc1F)c1ccccc1
23

====

# Test system: Poliovirus 1
# method-description: Antiviral activity against Human poliovirus 1 strain Sabin after 2 days by plaque reduction assay
# Type: functional
The source made the active and inactive calls. The rule behind the calls is not given here.
readout-label: Activity

The examples below pair each entry with its known result.
CN(C)CCCNc1ccc(/N=N/c2ccc([N+](=O)[O-])cc2)cc1 = inactive
CN(C)CCCNc1ccc(/N=N/c2cc(F)ccc2F)cc1 = inactive
FC(F)(F)c1cccc(/N=N/c2ccc(NC[C@@H]3CCCN4CCCC[C@H]34)c3c2CCCC3)c1 = inactive
Fc1ccc(F)c(/N=N/c2ccc(NC[C@@H]3CCCN4CCCC[C@H]34)c3c2CCCC3)c1 = inactive
CN(C)CCCNc1ccc(/N=N/c2c(F)cccc2F)cc1 = inactive
CN(C)CCCNc1ccc(/N=N/c2ccccc2)cc1 = inactive
Cc1c(/N=N/c2cccc(C(F)(F)F)c2)ccc(NC[C@@H]2CCCN3CCCC[C@H]23)c1C = inactive
Fc1ccc(/N=N/c2ccc(NC[C@@H]3CCCN4CCCC[C@H]34)c3c2CCCC3)c(F)c1 = inactive
Cc1c(/N=N/c2ccccc2)ccc(NC[C@@H]2CCCN3CCCC[C@H]23)c1C = inactive
Cc1ccc(/N=N/c2ccc(NCCCN(C)C)cc2)cc1 = inactive

# get_value(readout='Activity', item= CN(C)CCCNc1ccc(/N=N/c2cccc([N+](=O)[O-])c2)cc1 )
inactive

State the recorded Activity for this entry: c1ccc(/N=N/c2ccc(NC[C@@H]3CCCN4CCCC[C@H]34)c3c2CCCC3)cc1
inactive

====

# Test system: Vero
# method-description: Cytotoxicity against african green monkey Vero 76 cells by crystal violet staining
# Assay type: cell-based
# test-settings: chlorocebus sabaeus, vero
readout-label: CC50 (µM)
Give the number; µM is assumed, so skip it.

Examples from the recorded data:
CN(C)CCCN(/N=N/c1ccc([N+](=O)[O-])cc1)c1ccccc1 = 40
CN(C)CCCNc1ccc(/N=N/c2ccc([N+](=O)[O-])cc2)cc1 = 60
CN(C)CCCNc1ccc(/N=N/c2ccccc2)cc1 = 30
CN(C)CCCN(/N=N/c1c(F)cccc1F)c1ccccc1 = 25

Name the reported CC50 value associated with the compound CN(C)CCCN(/N=N/c1ccccc1)c1ccccc1
35

Consider the compound shown here: O=[N+]([O-])c1cccc(/N=N/Nc2ccccc2)c1 What is its recorded CC50?
33

What value of measured CC50 is listed for c1ccc(CN/N=N/c2ccccc2)cc1 ?
100

Requested field: CC50. Item: CN(C)CCCNc1ccc(/N=N/c2cccc([N+](=O)[O-])c2)cc1
25

Tell me the measured CC50 of c1ccc(N=NNc2ccccc2)cc1 , please.
90

Look up CC50 for this compound: Brc1cccc(/N=N/N2CCCCC2)c1
85

====

# method-description: Cytotoxicity against hamster BHK21 cells assessed as reduction in cell viability after 48 to 96 hrs by MTT assay
# Assay type: cell-based, Mesocricetus auratus, BHK-21
# test-settings: BHK21 cells
readout-label: CC50

CN(C)CCCN(/N=N/c1ccccc1)c1cccc(C(F)(F)F)c1 = 49 µM

So what's the measured CC50 for this one? Nc1nc2c(ncn2COCCO)c(=O)[nH]1
> 100 µM

For the compound NC(=O)c1ncn([C@@H]2O[C@H](CO)[C@@H](O)[C@H]2O)n1 , what CC50 is on record?
> 100 µM

====

# method-description: Cytotoxicity against human MT4 cells after 96 hrs by MTT assay
# Type: cell-based
# test-settings: MT4 cells
readout-label: CC50 at 96 h

Nc1nc2c(ncn2COCCO)c(=O)[nH]1 [ACYCLOVIR] = > 100 µM

Sample CN(C)CCCN(/N=N/c1ccccc1)c1cccc(C(F)(F)F)c1 — what was its CC50 at 96 h?
14 µM

Which CC50 at 96 h is listed for C[C@@]1(O)[C@H](O)[C@@H](CO)O[C@H]1n1cnc2c(=O)[nH]c(N)nc21 [2'-B-METHYL-GUANOSINE] ?
> 100 µM

====

# System: MT4
# method-description: Cytotoxicity against human MT4 cells after 96 hrs by MTT assay
# Format: cell-based
# test-settings: mt4, 96 h
readout-label: log10(CC50) (log10 of the value in µM)
In our notation, the value equals log10 of CC50 in µM.

COc1ccc(/N=N/N2CCCC2)cc1 = 1.83
CN(C)CCCN(/N=N/c1cc(F)ccc1F)c1cccc(C(F)(F)F)c1 = 1.20
c1ccc(/N=N/N2CCN(c3ccccc3)CC2)cc1 = 1.52
COc1c(C)c2c(c(O)c1C/C=C(\C)CCC(=O)O)C(=O)OC2 = -0.70

Reported log10(CC50) for NC(=O)c1ncn([C@@H]2O[C@H](CO)[C@@H](O)[C@H]2O)n1 : what is it?
1.49

Which measured log10(CC50) value corresponds to Fc1ccc(F)c(/N=N/Nc2ccccc2)c1 ?
2.00

Which measured log10(CC50) value corresponds to FC(F)(F)c1cccc(N(C[C@@H]2CCCN3CCCC[C@H]23)/N=N/c2ccccc2)c1 ?
1.23
